These data points were gathered from paper PMC10539501.

- protocol text: in vitro
- condition info: both, human, plasma
Starred links: 1 amine or outer side, 2 acyl side, 3 side chain; linkers in the order of their positions; H or OH if unused. Non-standard residues stand in square brackets, D forms with d. Residues, ends and D or L forms follow the SMILES beside them. X12 = C[C@@H](O)[C@H](N[*:1])C(=S)N[C@@H](Cc1ccccc1)C(=O)[*:2]; X8 = O=C([C@H](Cc1ccccc1)NC(=S)[C@@H]1CCCN1[*:1])[*:2]; X3 = CC(C)C[C@H](N[*:1])C(=S)N[C@H](CC(C)C)C(=O)[*:2]; X4 = CC(C)C[C@H](N[*:1])C(=S)N1CCC[C@@H]1C(=O)[*:2]; NMeY = CN[C@@H](Cc1ccc(O)cc1)C(=O)O; NMeL = CN[C@@H](CC(C)C)C(=O)O
property name: half-life (h)

The following molecules have reported results that may help.
| molecule | unit spec | half-life |
| --- | --- | --- |
| CC(C)C[C@@H]1NC(=O)[C@H](Cc2ccc(O)cc2)NC(=O)[C@H]2CCCN2C(=O)[C@H](CC(C)C)NC(=O)[C@H](CC(C)C)N(C)C(=O)[C@@H](CC(C)C)NC1=O [10h] (cyclo(L[dL][NMeL]L[dP]Y)) | h | 18 |
| C[C@@H](O)[C@@H]1NC(=O)[C@H](CCCCN)NC(=O)[C@@H](Cc2c[nH]c3ccccc23)NC(=O)[C@H](Cc2ccccc2)NC(=O)[C@@H]2CCCN2C(=O)[C@H](Cc2ccccc2)NC1=O [compound 13, cyclo(-D-Trp^1-Lys-Thr-Phe-Pro-Phe^6-)] (cyclo(PF[dW]KTF)) | h | 14 |
| CC(C)C[C@@H]1NC(=O)[C@@H](CC(C)C)NC(=S)[C@H](CC(C)C)NC(=O)[C@H](Cc2ccc(O)cc2)NC(=O)[C@H]2CCCN2C(=O)[C@H](CC(C)C)NC1=O [10f] (cyclo(LL[dP]Y[X3])) | h | 18 |
| CC(C)C[C@@H]1NC(=O)[C@@H](CC(C)C)NC(=O)[C@H](CC(C)C)NC(=O)[C@H](Cc2ccc(O)cc2)N(C)C(=O)[C@H]2CCCN2C(=O)[C@H](CC(C)C)NC1=O [10j] (cyclo(LL[dP][NMeY]L[dL])) | h | 11 |
| C[C@@H](O)[C@@H]1NC(=O)[C@H](CCCCN)NC(=O)[C@@H](Cc2c[nH]c3ccccc23)NC(=O)[C@H](Cc2ccccc2)NC(=S)[C@@H]2CCCN2C(=O)[C@H](Cc2ccccc2)NC1=O [13e] (cyclo(F[X8][dW]KT)) | h | 31 |

A. C[C@@H](O)[C@@H]1NC(=O)[C@H](CCCCN)NC(=O)[C@@H](Cc2c[nH]c3ccccc23)NC(=O)[C@H](Cc2ccccc2)NC(=O)[C@@H]2CCCN2C(=O)[C@H](Cc2ccccc2)NC1=S [13c] (cyclo(F[dW]K[X12]P))
B. CC(C)C[C@@H]1NC(=O)[C@H](Cc2ccc(O)cc2)NC(=O)[C@H]2CCCN2C(=S)[C@H](CC(C)C)NC(=O)[C@H](CC(C)C)NC(=O)[C@@H](CC(C)C)NC1=O [10c] (cyclo(L[dL]L[X4]Y))
Ask: Kindly identify which of A and B has the larger recorded half-life value. Write the label of whichever entry you select.
Result: A
(A: 33 h, B: 21 h)

====

- protocol text: in vitro
- condition info: human, microsomes
Non-standard residues stand in square brackets, D forms with d. Residues, ends and D or L forms follow the SMILES beside them. NMeY = CN[C@@H](Cc1ccc(O)cc1)C(=O)O; NMeL = CN[C@@H](CC(C)C)C(=O)O; dNMeL = CN[C@H](CC(C)C)C(=O)O
property name: remaining at 2 min (%)

// solved cases for remaining at 2 min follow
| molecule | property name | result number |
| --- | --- | --- |
| CC(C)C[C@@H]1NC(=O)[C@@H](CC(C)C)N(C)C(=O)[C@H](CC(C)C)NC(=O)[C@H](Cc2ccc(O)cc2)NC(=O)[C@H]2CCCN2C(=O)[C@H](CC(C)C)NC1=O [10g] (cyclo(LL[dP]YL[dNMeL])) | remaining at 2 min | 89 |
| CC(C)C[C@@H]1NC(=O)[C@@H](CC(C)C)NC(=O)[C@H](CC(C)C)NC(=O)[C@H](Cc2ccc(O)cc2)N(C)C(=O)[C@H]2CCCN2C(=O)[C@H](CC(C)C)NC1=O [10j] (cyclo(LL[dP][NMeY]L[dL])) | remaining at 2 min | 91 |
| CC(C)C[C@@H]1NC(=O)[C@H](Cc2ccc(O)cc2)NC(=O)[C@H]2CCCN2C(=O)[C@H](CC(C)C)N(C)C(=O)[C@H](CC(C)C)NC(=O)[C@@H](CC(C)C)NC1=O [10i] (cyclo(L[NMeL][dP]YL[dL])) | remaining at 2 min | 93 |

I. CC(C)C[C@@H]1NC(=O)[C@H](Cc2ccc(O)cc2)NC(=O)[C@H]2CCCN2C(=O)[C@H](CC(C)C)NC(=O)[C@H](CC(C)C)N(C)C(=O)[C@@H](CC(C)C)NC1=O [10h] (cyclo(L[dL][NMeL]L[dP]Y))
II. CC(C)C[C@@H]1NC(=O)[C@@H](CC(C)C)NC(=O)[C@H](CC(C)C)N(C)C(=O)[C@H](Cc2ccc(O)cc2)NC(=O)[C@H]2CCCN2C(=O)[C@H](CC(C)C)NC1=O [10k] (cyclo(LL[dP]Y[NMeL][dL]))
Ask: Please indicate which has the smaller reported remaining at 2 min: I , or II . When you have decided, please share the label of that item.
Result: II
(II: 67%, I: 99%)

====

- protocol text: in vitro
- condition info: human, microsomes
Starred links: 1 amine or outer side, 2 acyl side, 3 side chain; linkers in the order of their positions; H or OH if unused. Non-standard residues stand in square brackets, D forms with d. Residues, ends and D or L forms follow the SMILES beside them. X4 = CC(C)C[C@H](N[*:1])C(=S)N1CCC[C@@H]1C(=O)[*:2]; dNMeL = CN[C@H](CC(C)C)C(=O)O
property name: remaining at 0.5 h (%)

| compound | unit spec | result number |
| --- | --- | --- |
| CC(C)C[C@@H]1NC(=O)[C@H](Cc2ccc(O)cc2)NC(=O)[C@H]2CCCN2C(=S)[C@H](CC(C)C)NC(=O)[C@H](CC(C)C)NC(=O)[C@@H](CC(C)C)NC1=O [10c] (cyclo(L[dL]L[X4]Y)) | % | 35 |
| CC(C)C[C@@H]1NC(=O)[C@H](Cc2ccc(O)cc2)NC(=O)[C@H]2CCCN2C(=O)[C@H](CC(C)C)NC(=O)[C@H](CC(C)C)NC(=O)[C@@H](CC(C)C)NC1=O [compound 10, cyclo(-D-Leu^1-Leu-Leu-D-Pro-Tyr-Leu^6-)] (cyclo(LL[dP]YL[dL])) | % | 29 |
| CC(C)C[C@@H]1NC(=O)[C@@H](CC(C)C)N(C)C(=O)[C@H](CC(C)C)NC(=O)[C@H](Cc2ccc(O)cc2)NC(=O)[C@H]2CCCN2C(=O)[C@H](CC(C)C)NC1=O [10g] (cyclo(LL[dP]YL[dNMeL])) | % | 25 |

====

- protocol text: in vitro
- condition info: pig, simulated intestinal fluid
Starred links: 1 amine or outer side, 2 acyl side, 3 side chain; linkers in the order of their positions; H or OH if unused. Non-standard residues stand in square brackets, D forms with d. Residues, ends and D or L forms follow the SMILES beside them. X4 = CC(C)C[C@H](N[*:1])C(=S)N1CCC[C@@H]1C(=O)[*:2]; NMeL = CN[C@@H](CC(C)C)C(=O)O
property name: remaining at 10 min (%)

| molecule | unit spec | remaining at 10 min |
| --- | --- | --- |
| CC(C)C[C@@H]1NC(=O)[C@H](Cc2ccc(O)cc2)NC(=O)[C@H]2CCCN2C(=S)[C@H](CC(C)C)NC(=O)[C@H](CC(C)C)NC(=O)[C@@H](CC(C)C)NC1=O [10c] (cyclo(L[dL]L[X4]Y)) | % | 70 |
| CC(C)C[C@@H]1NC(=O)[C@@H](CC(C)C)NC(=O)[C@H](CC(C)C)N(C)C(=O)[C@H](Cc2ccc(O)cc2)NC(=O)[C@H]2CCCN2C(=O)[C@H](CC(C)C)NC1=O [10k] (cyclo(LL[dP]Y[NMeL][dL])) | % | 88 |
| CC(C)C[C@@H]1NC(=O)[C@H](Cc2ccc(O)cc2)NC(=O)[C@H]2CCCN2C(=O)[C@H](CC(C)C)N(C)C(=O)[C@H](CC(C)C)NC(=O)[C@@H](CC(C)C)NC1=O [10i] (cyclo(L[NMeL][dP]YL[dL])) | % | 90 |
